PROCEDURE TEXT: DMPK study in mice
Format: in vivo
REPORTED CONDITIONS: mouse, plasma; male C57 mice, single dose
OUTCOME MEASURE: clearance (mL/min/kg)

[P] N#Cc1ccc(COc2cccc(C3=CCN(Cc4nc5sc(C(=O)O)cc5n4C[C@@H]4CCO4)CC3)n2)c(F)c1 [WXA001]
[Q] O=C(O)c1cc2c(nc(CN3CC=C(c4cccc(OCc5ccc(Cl)cc5F)n4)CC3)n2C[C@@H]2CCO2)s1 [WXA005]
Query: // returns P or Q , whichever has the lower clearance Give the label under which the chosen entry appears.
Result: Q

---

PROCEDURE TEXT: DMPK study in cynomolgus monkey
Assay type: in vivo
REPORTED CONDITIONS: plasma; male cynomolgus monkey, single dose; read-out: Vdss
OUTCOME MEASURE: Vd (L/kg)

O=C(O)c1cc2c(nc(CN3CC=C(c4cccc(OCc5ccc(Cl)cc5F)n4)CC3)n2C[C@@H]2CCO2)s1 [WXA005]	0.59
N#Cc1ccc(COc2cccc(C3=CCN(Cc4nc5sc(C(=O)O)cc5n4C[C@@H]4CCO4)CC3)n2)c(F)c1 [WXA001]	0.73

---

PROCEDURE TEXT: DMPK study in mice
Assay type: in vivo
REPORTED CONDITIONS: mouse, plasma; male C57 mice, single dose; read-out: Vdss
Experimental: Male C57 mice were used as test animals, after a single dose, the plasma concentration of the compound was determined and the pharmacokinetic behavior was evaluated. Three healthy adult male C57 mice were selected as oral group. In the oral group, the solvent was 20% PEG400/10% solutol/70% water, the compounds to be tested were mixed with the solvent, the mixture was votexed and sonicated to prepare a 0.5 mg/mL clear solution. […]
OUTCOME MEASURE: Vd (L/kg)

[I] O=C(O)c1cc2c(nc(CN3CC=C(c4cccc(OCc5ccc(Cl)cc5F)n4)CC3)n2C[C@@H]2CCO2)s1
[II] N#Cc1ccc(COc2cccc(C3=CCN(Cc4nc5sc(C(=O)O)cc5n4C[C@@H]4CCO4)CC3)n2)c(F)c1
Query: Hey, between I and II which has a smaller measured Vd? The response must carry the label of the picked entry.
Result: II
(II: 1.87 L/kg, I: 2.84 L/kg)

---

PROCEDURE TEXT: DMPK study in cynomolgus monkey
Format: in vivo
REPORTED CONDITIONS: plasma; male cynomolgus monkey, single dose
OUTCOME MEASURE: clearance (mL/min/kg)

[P] O=C(O)c1cc2c(nc(CN3CC=C(c4cccc(OCc5ccc(Cl)cc5F)n4)CC3)n2C[C@@H]2CCO2)s1
[Q] N#Cc1ccc(COc2cccc(C3=CCN(Cc4nc5sc(C(=O)O)cc5n4C[C@@H]4CCO4)CC3)n2)c(F)c1
Query: Form: Entry with minimum clearance (choose one): P / Q Field: selected label. Fill in the label of the entry you choose.
Result: P

---

PROCEDURE TEXT: DMPK study in mice
Assay type: in vivo
REPORTED CONDITIONS: mouse; male C57 mice, oral 5 mg/kg, plasma
OUTCOME MEASURE: Cmax (nM)

O=C(O)c1cc2c(nc(CN3CC=C(c4cccc(OCc5ccc(Cl)cc5F)n4)CC3)n2C[C@@H]2CCO2)s1	835

[A] N#Cc1ccc(COc2cccc(C3=CCN(Cc4nc5sc(C(=O)O)cc5n4C[C@@H]4CCO4)CC3)n2)c(F)c1
[B] O=C(O)c1cc2nc(CN3CC=C(c4cccc(OCc5ccc(Cl)cc5F)n4)CC3)n(C[C@@H]3CCO3)c2s1
Query: Please choose the item with the lower Cmax value from this pair: A and B Label of pick, please.
Result: B
